- assay.system: K-Ras G12S (Homo sapiens, UniProt P01116, G12S)
- Construct: made in house; host or cells: E. coli BL21 (DE3)
- Sequence (P01116 1-188 isoform P01116-2 G12S): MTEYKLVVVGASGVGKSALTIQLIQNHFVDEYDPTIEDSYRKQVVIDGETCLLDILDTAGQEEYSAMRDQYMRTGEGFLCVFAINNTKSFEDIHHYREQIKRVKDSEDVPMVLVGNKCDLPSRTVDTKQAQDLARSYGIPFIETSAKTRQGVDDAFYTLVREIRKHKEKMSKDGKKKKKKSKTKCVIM
- protocol.description: HTRF resonance energy transfer assay, K-Ras G12S / SOS1 interaction
- Type: biochemical
- run.parameters: HTRF assay of Example 5; read-out: IC50 against K-Ras G12S
Some molecules, each annotated with its measured IC50.

Reference set, count: 2
{"structure.smiles": "C[C@@H](O)[C@H]1COc2c(Cl)c(-c3ccc(F)c4sc(N)c(C#N)c34)c(F)c3nc(OC[C@@]45CCCN4C[C@H](F)C5)nc(c23)N1CC(F)F", "assay.endpoint": "IC50", "recorded.measurement": "< 100 nM"}
{"structure.smiles": "N#Cc1c(N)sc2c(F)ccc(-c3c(Cl)c4c5c(nc(OC[C@@]67CCCN6C[C@H](F)C7)nc5c3F)N(CC3(C#N)CC3)CCO4)c12", "assay.endpoint": "IC50", "recorded.measurement": "< 100 nM"}

Consider the record given below.
Inquiry: Write IC50 of CN(CCN1CCOc2c(Cl)c(-c3ccc(F)c4sc(N)c(C#N)c34)c(F)c3nc(OC[C@@]45CCCN4C[C@H](F)C5)nc1c23)C(=O)C1COC1 ; system used: K-Ras G12S (Homo sapiens, UniProt P01116, G12S)
Reply text: < 100 nM

###

- assay.system: K-Ras G12D (Homo sapiens, UniProt P01116, G12D)
- Sequence (P01116 1-188 isoform P01116-2 G12D): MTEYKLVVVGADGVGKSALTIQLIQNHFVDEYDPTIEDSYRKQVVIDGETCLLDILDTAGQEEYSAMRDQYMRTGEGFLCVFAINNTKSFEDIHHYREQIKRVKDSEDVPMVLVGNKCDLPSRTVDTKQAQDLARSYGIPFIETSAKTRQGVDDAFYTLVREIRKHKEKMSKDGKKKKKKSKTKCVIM
- protocol.description: HTRF resonance energy transfer assay, K-Ras G12D / SOS1 interaction
- run.parameters: HTRF assay of Example 5; read-out: IC50 against K-Ras G12D
Some compounds, each annotated with its measured IC50.

Reference set, count: 2
{"compound": "N#Cc1c(N)sc2c(F)ccc(-c3c(Cl)c4c5c(nc(OC[C@@]67CCCN6C[C@H](F)C7)nc5c3F)N(CC(F)F)C(C3CCN3)CO4)c12 (stereo partly drawn)", "recorded.measurement": "< 100 nM"}
{"compound": "N#Cc1c(N)sc2c(F)ccc(-c3c(Cl)c4c5c(nc(OC[C@@]67CCCN6C[C@H](F)C7)nc5c3F)N(CC(F)F)C(C3CCNC3)CO4)c12 (stereo partly drawn)", "recorded.measurement": "< 100 nM"}

Consider the record given below.
Inquiry: # return recorded IC50 for input C[C@@H]1CCOc2c(Cl)c(-c3ccc(F)c4sc(N)c(C#N)c34)c(F)c3nc(OC[C@@]45CCCN4C[C@H](F)C5)nc(c23)N1CC(F)F
Reply text: < 100 nM

###

- assay.system: K-Ras WT (Homo sapiens)
- Sequence (P01116 1-188 isoform P01116-2): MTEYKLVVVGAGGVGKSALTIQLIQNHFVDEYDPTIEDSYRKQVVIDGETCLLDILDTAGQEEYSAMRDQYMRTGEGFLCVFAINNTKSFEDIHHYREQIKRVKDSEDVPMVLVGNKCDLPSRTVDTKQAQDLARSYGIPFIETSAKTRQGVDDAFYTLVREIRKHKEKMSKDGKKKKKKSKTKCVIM
- protocol.description: HTRF resonance energy transfer assay, K-Ras WT / SOS1 interaction
- run.parameters: HTRF assay of Example 5; read-out: IC50 against K-Ras WT
assay.endpoint: IC50

Reference set, count: 5
{"molecule": "C[C@@H]1CN(CC(F)F)c2nc(OC[C@@]34CCCN3C[C@H](F)C4)nc3c(F)c(-c4ccc(F)c5sc(N)c(C#N)c45)c(Cl)c(c23)O1", "recorded.measurement": "< 100 nM"}
{"molecule": "N#Cc1c(N)sc2c(F)ccc(-c3c(Cl)c4c5c(nc(OC[C@@]67CCCN6C[C@H](F)C7)nc5c3F)N(CCOC(F)F)CCO4)c12", "recorded.measurement": "< 100 nM"}
{"molecule": "COC1CC(N2CCOc3c(Cl)c(-c4ccc(F)c5sc(N)c(C#N)c45)c(F)c4nc(OC[C@@]56CCCN5C[C@H](F)C6)nc2c34)C1 (stereo partly shown)", "recorded.measurement": "< 100 nM"}
{"molecule": "N#Cc1c(N)sc2c(F)ccc(-c3c(Cl)c4c5c(nc(OC[C@@]67CCCN6C[C@H](F)C7)nc5c3F)N(C3CCNC3)CCO4)c12 (stereo partly shown)", "recorded.measurement": "< 100 nM"}
{"molecule": "C#C[C@H]1COc2c(Cl)c(-c3ccc(F)c4sc(N)c(C#N)c34)c(F)c3nc(OC[C@@]45CCCN4C[C@H](F)C5)nc(c23)N1CC(F)F", "recorded.measurement": "< 100 nM"}

Consider the record given below.
Inquiry: # return recorded IC50 for input N#Cc1c(N)sc2c(F)ccc(-c3c(Cl)c4c5c(nc(OC[C@@]67CCCN6C[C@H](F)C7)nc5c3F)N(CC(F)F)C(CC(F)F)CO4)c12 (stereo partly shown)
Reply text: < 100 nM
